B1: MATN2 (parent)
chain: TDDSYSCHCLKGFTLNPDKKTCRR

# Variants of: B1
# method: protein stability index of a GFP-peptide fusion (GPS, HEK-293T) (PSI 1-6); higher = more stable;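 further: lentivirally expressed fusions sorted by FACS into six bins by GFP to DsRed ratio, PSI derived from sequencing read proportions per bin multiplied by bin number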
# conditions: c terminus: a fixed tail appended
metric: protein stability index
One number for each entry.

{"columns": ["variant notation", "protein stability index"],
 "data": [
  ["D2G", 2.98]
]}

For each of the items listed, what is its protein stability index?
1. P17I
2. N16C
3. R24K
4. H8D

Completion:
[2.01, 2.97, 2.99, 2.05]
